- experiment-summary: Determination of bulk and tapped density
- Format: physicochemical
readout-kind: Bulk density (ρB) (g/cc)

- compound: "N=C(N)NCCC(=O)O.N=C(N)NCCC(=O)O.O=C(O)CCC(=O)O [β-GPA succinate (2:1)]"
  readout-kind: "Bulk density (ρB)"
  value-units: "g/cc"
  number: 0.405
- compound: "N=C(N)NCCC(=O)O.O=C(O)C(=O)O [β-GPA oxalate (1:1)]"
  readout-kind: "Bulk density (ρB)"
  value-units: "g/cc"
  number: 0.505
- compound: "N=C(N)NCCC(=O)O.O=C(O)/C=C/C(=O)O [β-GPA fumarate (1:1)]"
  readout-kind: "Bulk density (ρB)"
  value-units: "g/cc"
  number: 0.576
- compound: "N=C(N)NCCC(=O)O [β-GPA, β-Guanidinopropionic acid, reference compound]"
  readout-kind: "Bulk density (ρB)"
  value-units: "g/cc"
  number: 0.389

---

- experiment-summary: Flowability measurement using Hanson Flodex unit
- Assay type: physicochemical
- condition-parameters: density and Hanson Flodex data
readout-kind: Flow character (summary from the experimental data)

- compound: "N=C(N)NCCC(=O)O [β-GPA, β-Guanidinopropionic acid, reference compound]"
  result: "poor"
- compound: "N=C(N)NCCC(=O)O.O=C(O)C(=O)O [β-GPA oxalate (1:1)]"
  result: "fair"
- compound: "N=C(N)NCCC(=O)O.N=C(N)NCCC(=O)O.O=C(O)CCC(=O)O [β-GPA succinate (2:1)]"
  result: "good"

---

- experiment-summary: Dynamic vapor sorption (moisture uptake)
- Assay type: physicochemical
- condition-parameters: XRPD of post DVS sample
readout-kind: Solid form after the DVS experiment (XRPD)

- compound: "N=C(N)NCCC(=O)O.N=C(N)NCCC(=O)O.O=C(O)CCC(=O)O [β-GPA succinate (2:1)]"
  result: "retained their XRPD"
- compound: "N=C(N)NCCC(=O)O.O=C(O)C(=O)O [β-GPA oxalate (1:1)]"
  result: "retained their XRPD"

---

- experiment-summary: Determination of bulk and tapped density
- Assay type: physicochemical
- condition-parameters: Tap density analyzer
Entries and their Tapped density (ρT) values follow.
readout-kind: Tapped density (ρT) (g/cc)

- molecule: "N=C(N)NCCC(=O)O.N=C(N)NCCC(=O)O.O=C(O)CCC(=O)O [β-GPA succinate (2:1)]"
  readout-kind: "Tapped density (ρT)"
  number: 0.472
- molecule: "N=C(N)NCCC(=O)O.O=C(O)/C=C/C(=O)O [β-GPA fumarate (1:1)]"
  readout-kind: "Tapped density (ρT)"
  number: 0.613
- molecule: "N=C(N)NCCC(=O)O.O=C(O)C(=O)O [β-GPA oxalate (1:1)]"
  readout-kind: "Tapped density (ρT)"
  number: 0.623
- molecule: "N=C(N)NCCC(=O)O [β-GPA, β-Guanidinopropionic acid, reference compound]"
  readout-kind: "Tapped density (ρT)"
  number: 0.627

---

- experiment-summary: Solubility of β-GPA in water
- Assay type: physicochemical

- compound: "N=C(N)NCCC(=O)O [β-GPA, β-Guanidinopropionic acid, reference compound]"
  solubility: "> 50 mg/mL"

These data points were gathered from patent US9827217B2.
